B1: Chromodomain-helicase-DNA-binding protein 5, residues 338 to 390; numbered along this chain, Q8TDI0 (parent)
chain: YETDHQDYCEVCQQGGEIILCDTCPRAYHLVCLDPELEKAPEGKWSCPHCEKE

Variants of: B1
Test: abundance fitness (aPCA) (normalised: wild type 0, dead -1); higher = more abundant; growth selection in yeast, the domain comes from the species named
Details: Homo sapiens
Class Satisfied: abundance fitness at least 0.1. Class Not satisfied: abundance fitness below 0.1.

Inquiry: Does abundance fitness meet or surpass 0.1 for H49N ?
Reply text: Satisfied

Inquiry: Does abundance fitness meet or surpass 0.1 for V31G ?
Reply text: Not satisfied

Inquiry: Does abundance fitness meet or surpass 0.1 for V31A ?
Reply text: Not satisfied

Inquiry: Does abundance fitness meet or surpass 0.1 for L20Y ?
Reply text: Satisfied

Inquiry: Does abundance fitness meet or surpass 0.1 for K39D ?
Reply text: Not satisfied

Inquiry: Does abundance fitness meet or surpass 0.1 for W45C ?
Reply text: Satisfied

Inquiry: Does abundance fitness meet or surpass 0.1 for H49L ?
Reply text: Not satisfied

Inquiry: Does abundance fitness meet or surpass 0.1 for K44G ?
Reply text: Not satisfied

Inquiry: Does abundance fitness meet or surpass 0.1 for G16Y ?
Reply text: Satisfied
